Kindly state growth for each of the entries shown.
- Test system: MOLT-4 leukemia
- test: NCI-60 one-dose screen, 48 h (100 = growth as untreated, 0 = no growth, -100 = all killed)
- measurement-conditions: 10 µM unless noted
Compounds without any hit were thinned out: in the full panel of roughly 83,000, 20% have a hit.
One number for each entry, in %.

A selection of reference data follows.
C#CCn1cnc2c(Nc3cccc(NC(=O)CCl)c3)ncnc21: 4.44
O=C(Nc1ccc(F)cc1)Nc1ccccc1CNc1nc(Nc2ccc(OCCN3CCCC3)cc2)ncc1Cl: 14.1
COc1ccc(C2=Nc3c(N)ncnc3NC(c3cccc(Nc4ccnc5cc(C(F)(F)F)ccc45)c3)C2)cc1 (stereo not drawn): 19.7
CC(C)C[C@@H](C(=O)N[C@H](C(=O)OC1CCCC1)c1ccccc1)[C@H](O)C(=O)NO: 63.4
N=C(N)c1ccc(-c2ccc(-c3ccc(F)cc3)s2)s1: -44.2
Cc1ccc(O)c(NC(=O)c2ccc(CNc3ccnc(C(F)(F)F)c3)cc2)c1: 25.1

List reported growth for each of these molecules:
1. C=C(CO)[C@@H]1CC[C@]2(COC3CCCCO3)CC[C@]3(C)[C@H](CC[C@@H]4[C@@]5(C)C=C(C=O)C(=O)C(C)(C)[C@@H]5CC[C@]43C)[C@@H]12 (stereo partly drawn)
2. CC[C@H](CC[C@@H](C)[C@H]1CC[C@H]2[C@@H]3CC[C@@H]4CC(=O)/C(=C\c5ccncc5)C[C@]4(C)[C@H]3CC[C@]12C)C(C)C

A:
1: -32.2; 2: 104

====

- Test system: HOP-92 NSCLC
- test: NCI-60 one-dose screen, 48 h
- measurement-conditions: 10 µM unless noted
Compounds without any hit were thinned out: in the full panel of roughly 83,000, 20% have a hit. The source made the active and inactive calls. How the source made its calls: active means growth percent below 10; inactive means the rest.
Choose the fitting class; nothing outside 1 for active, -1 for inactive is accepted.

CN1CCN(Cc2cc(NC(=O)c3cccc(C#Cc4cccc5[nH]nc(N)c45)c3)cc(C(F)(F)F)c2)CC1: 1
C[C@@H](CO)[C@@H]1CC[C@]2(C(=O)N3CCN(C)CC3)CC[C@]3(C)[C@H](CC[C@@H]4[C@@]5(C)CC[C@H](O)C(C)(C)[C@@H]5CC[C@]43C)[C@@H]12: -1
COc1cccc(C(=O)OCC(O)C(=O)NC23CC4CC(CC(C4)C2)C3)c1 (stereo unspecified): -1
NC(=O)OCCn1cc(-c2nc(-c3c[nH]c4ncccc34)cs2)c2ccccc21: -1
CCN1C(=S)N(CC)C2C1NC(=S)N2/N=C/C=C/c1ccccc1OC (stereo unspecified): -1

Q: Dear all, I need the recorded test outcome for C=C(C)[C@@H]1CC[C@]2(CO)CC[C@]3(C)[C@H](CC[C@@H]4[C@@]5(C)CCC(NCCc6ccc(O)cc6)C(C)(C)[C@@H]5CC[C@]43C)[C@@H]12 (stereo partly specified) , thank you.
A: 1

Q: Dear all, I need the recorded test outcome for Clc1nn2c(Cn3cnc4c(NCc5ccccc5)ncnc43)nnc2c2ccccc12 , thank you.
A: 1

Q: Dear all, I need the recorded test outcome for O=C(Nc1ccccc1O)c1ccccc1Nc1ccnc(C(F)(F)F)c1 , thank you.
A: -1

Q: Dear all, I need the recorded test outcome for C#Cc1cccc(Nc2nc3ccc([N+](=O)[O-])cc3nc2Nc2cccc(C#C)c2)c1 , thank you.
A: 1

Q: Dear all, I need the recorded test outcome for NC(=O)c1c(NC(=O)c2ccc(Cl)cc2)sc2c1CCC(=O)C2 , thank you.
A: -1

Q: Dear all, I need the recorded test outcome for CNCc1cccc2c1OCCOCCN(C)C(=O)CN(C)S(=O)(=O)c1ccc(cc1)-c1cnc(N)c(n1)C(=O)N2 , thank you.
A: -1

Q: Dear all, I need the recorded test outcome for CCn1cc(C2=C(c3cn(C)c4ncccc34)C(=O)NC2=O)c2cccnc21 , thank you.
A: -1

====

- System: MCF7 breast
- test: NCI-60 one-dose screen, 48 h
- measurement-conditions: 10 µM unless noted
- Protocol: Growth inhibition of the MCF7 human tumor cell line is measured as a screen for anti-cancer activity. Cells are grown in 96 well plates and exposed to the test compound for 48 hours. Compounds are tested at a single concentration, which is 10^-5 M for most compounds. The reported endpoint is percent growth (GI% or GIPRCNT), where numbers from 0 - 100% represent growth inhibition, and numbers from -100% - 0 represent cell death. For example, a value of 40 represents 60% growth inhibition. […]
The panel holds about 83,000 compounds, 20% with a hit somewhere; the sample as a whole holds those more often. Active and inactive are the calls of the source. How the source made its calls: active means growth percent below 10; inactive means the rest.
Choose the fitting class; nothing outside true (1) (active), false (0) (inactive) is accepted.

Reference set, count: 3
O=C(Cn1nnc2ccccc21)Nc1ccc(-c2nc3ccccc3s2)cc1: false (0)
Cc1ccc(/C=C/C(=O)c2ccc(NC(=O)CSc3nc4c([nH]3)c(=O)n(C)c(=O)n4C)cc2)c(C)c1: false (0)
COc1ccc(Nc2ncc(C(N)=O)c(NCCCNC(=O)C3CCC3)n2)cc1: false (0)

Q: Dear all, I need the recorded test outcome for COc1ccc2nc(SCC(=O)Nc3ccccc3C)[nH]c2c1 , thank you.
A: false (0)

====

- Tested on: SK-MEL-2 melanoma
- test: NCI-60 one-dose screen, 48 h (100 = growth as untreated, 0 = no growth, -100 = all killed)
- measurement-conditions: 10 µM unless noted
Compounds without any hit were thinned out: in the full panel of roughly 83,000, 20% have a hit.
parameter-measured: growth (%)
Numbers only, in %.

A selection of reference data follows.
CCOC(=O)c1cn2ncnc(Oc3ccc(NC(=O)NC4CC4)c(F)c3)c2c1C: 114
Fc1ccc2c(c1)c(-c1nc(-c3c[nH]c4ncccc34)cs1)cn2CCCN1CCOCC1: 60.5
COc1ccccc1-n1c(-c2cc(O)ccc2C)cn2c3c(=O)[nH]c(=O)n(C)c3nc12: 89.7

// field: growth; key: NS(=O)(=O)c1ccc(N/C=C/C(=O)c2cc3ccccc3oc2=O)cc1 ; value = 109

====

- System: HT29 colon
- test: NCI-60 one-dose screen, 48 h (100 = growth as untreated, 0 = no growth, -100 = all killed)
- measurement-conditions: 10 µM unless noted
Compounds without any hit were thinned out: in the full panel of roughly 83,000, 20% have a hit.
Param threshold (60%) applies to growth; output yes (1) when value >= threshold, no (0) when value < threshold.

O=C1NC(=C(Cl)Cl)/C(=N/S(=O)(=O)NCCc2c[nH]c3ccccc23)N1: no (0)
O=C(CSc1nc2ccc([N+](=O)[O-])cc2[nH]1)Nc1cccc([N+](=O)[O-])c1: no (0)

Q: Is it the case that CC(C)(CO)N(CCO)CCO has growth reaching or exceeding 60%?
A: yes (1)

Q: Is it the case that CCN1CCN(CC(=O)Nc2nc3ccc(NCc4ccc(Br)cc4)cc3s2)CC1 has growth reaching or exceeding 60%?
A: no (0)

Q: Is it the case that CCNCc1ccc(O)c2ncccc12 has growth reaching or exceeding 60%?
A: yes (1)

Q: Is it the case that Cc1[nH]c(C(=O)Nc2ccc(C(N)=O)cc2NC(C)C)c(Cl)c1Cl has growth reaching or exceeding 60%?
A: yes (1)

Q: Is it the case that O=C1/C(=C/c2ccc(C(F)(F)F)cc2)COc2ccc(O)cc21 has growth reaching or exceeding 60%?
A: no (0)

Q: Is it the case that CCCCCCOC(=O)CC1=C(C)/C(=C/c2[nH]c(-c3ccc[nH]3)cc2OC)N=C1C has growth reaching or exceeding 60%?
A: no (0)

Q: Is it the case that Oc1c(Cl)cc(Cl)c2ccc(Cn3cc(-c4cccc(C(F)(F)F)c4)nn3)nc12 has growth reaching or exceeding 60%?
A: yes (1)

Q: Is it the case that COc1cccc(C(=O)OCC(O)C(=O)NC23CC4CC(CC(C4)C2)C3)c1 (stereo not given) has growth reaching or exceeding 60%?
A: yes (1)

====

- Test system: BT-549 breast
- test: NCI-60 one-dose screen, 48 h (100 = growth as untreated, 0 = no growth, -100 = all killed)
- measurement-conditions: 10 µM unless noted
The panel holds about 83,000 compounds, 20% with a hit somewhere; the sample as a whole holds those more often.
Param threshold (80%) applies to growth; output met when value >= threshold, not met when value < threshold.

CN1CCN(Cc2ccc(NC(=O)c3cncc(C#Cc4cncc5[nH]ncc45)c3)cc2C(F)(F)F)CC1: not met
O=C(O)c1cccc(N/C=C/C(=O)c2cc3cc(Br)ccc3oc2=O)c1: met

Q: Is it the case that O=C(CSc1nc2ccc([N+](=O)[O-])cc2[nH]1)Nc1ccc(Br)cc1 has growth reaching or exceeding 80%?
A: not met

Q: Is it the case that O=C(CN1C(=O)/C(=C/c2ccco2)SC1=S)NCCc1c[nH]c2ccc(F)cc12 has growth reaching or exceeding 80%?
A: met

Q: Is it the case that CC(C)c1ccc(NC(=O)Nc2ccc(NC(=O)c3ccccc3N)cc2)cc1 has growth reaching or exceeding 80%?
A: not met

Q: Is it the case that CCCCCCNc1nc(NCCCCCC)c2[nH]c(NCCCCCC)nc2n1 has growth reaching or exceeding 80%?
A: not met

Q: Is it the case that CCCCCCC(CCCC)COC(=O)c1ccc(Cl)cc1 (stereo not given) has growth reaching or exceeding 80%?
A: met

Q: Is it the case that Fc1ccc2c(c1)c(-c1nc(-c3c[nH]c4ncccc34)cs1)cn2CCCN1CCOCC1 has growth reaching or exceeding 80%?
A: not met

Q: Is it the case that COc1ccc(/C=C/C(=O)c2ccc(Nc3nc(Nc4ccc(F)cc4)nc(Nc4ccc(Cl)cc4)n3)cc2)cc1 has growth reaching or exceeding 80%?
A: met

Q: Is it the case that O=C(O)CCCc1cnc2c3sccc3nc(SCc3c(Cl)cccc3Cl)n12 has growth reaching or exceeding 80%?
A: not met
